ASSAYED_TARGET: Transient receptor potential cation channel subfamily V member 1 (Homo sapiens)
ASSAY_PROCEDURE: Antagonist activity at human recombinant TRPV1 receptor assessed as inhibition of capsaicin-induced calcium uptake by FLIPR assay
OBSERVABLE: IC50 (µM)

I: CC(C)(C)c1ccc(C(=O)Nc2ccc3sc(CO)nc3c2)cc1
II: Cc1ccc(CCNC(=O)c2ccc3sc(CO)nc3c2)cc1
III: CC(O)c1nc2cc(NC(=O)c3ccc(C(C)(C)C)cc3)ccc2s1 (racemic)
IV: CC(C)(C)c1ccc(C(=O)Nc2ccc3sc(CNS(C)(=O)=O)nc3c2)cc1
Exercise: Sort the list above on IC50 in ascending fashion. Use the labels to give the requested order.
Key: I, III, IV, II

I: O=C(Nc1ccc2sc(CO)nc2c1)c1ccc(Cl)cc1
II: O=C(Nc1ccc2sc(CO)nc2c1)c1ccc(C(F)(F)F)cc1
III: CC(C)(C)c1ccc(CNc2ccc3sc(CO)nc3c2)cc1
Exercise: Which order do these items take when sorted by rising IC50? List them. Use the labels to give the requested order.
Key: II, I, III
(II: 0.0119 µM, I: 0.0682 µM, III: 0.833 µM)

====

Here, each record is paired with measured IC50 data.
ASSAYED_TARGET: Transient receptor potential cation channel subfamily V member 1 (Homo sapiens, UniProt Q8NER1)
Sequence (Q8NER1 whole entry): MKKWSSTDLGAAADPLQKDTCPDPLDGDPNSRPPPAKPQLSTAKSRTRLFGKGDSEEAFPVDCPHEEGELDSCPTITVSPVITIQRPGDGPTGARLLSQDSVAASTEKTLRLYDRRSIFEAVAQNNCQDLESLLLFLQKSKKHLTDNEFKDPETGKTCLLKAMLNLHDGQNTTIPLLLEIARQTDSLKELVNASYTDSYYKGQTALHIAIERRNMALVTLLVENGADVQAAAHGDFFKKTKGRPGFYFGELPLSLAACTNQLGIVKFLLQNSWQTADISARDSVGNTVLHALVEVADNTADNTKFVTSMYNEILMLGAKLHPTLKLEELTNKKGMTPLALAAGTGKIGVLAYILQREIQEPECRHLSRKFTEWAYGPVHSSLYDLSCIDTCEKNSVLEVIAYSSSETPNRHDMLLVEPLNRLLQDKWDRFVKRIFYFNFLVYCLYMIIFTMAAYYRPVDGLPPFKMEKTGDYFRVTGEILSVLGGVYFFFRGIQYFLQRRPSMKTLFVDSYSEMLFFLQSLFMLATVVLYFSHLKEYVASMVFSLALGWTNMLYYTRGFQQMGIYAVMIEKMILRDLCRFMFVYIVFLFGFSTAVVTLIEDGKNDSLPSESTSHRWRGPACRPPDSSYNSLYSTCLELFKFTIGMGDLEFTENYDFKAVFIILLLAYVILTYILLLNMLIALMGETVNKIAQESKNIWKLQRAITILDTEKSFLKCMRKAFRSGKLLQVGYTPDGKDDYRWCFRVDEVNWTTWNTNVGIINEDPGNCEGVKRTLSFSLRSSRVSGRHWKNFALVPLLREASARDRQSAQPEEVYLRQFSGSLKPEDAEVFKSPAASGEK
ASSAY_PROCEDURE: Antagonist activity at human recombinant TRPV1 receptor assessed as inhibition of capsaicin-induced calcium uptake by FLIPR assay
Assay type: functional

Some compounds with recorded IC50:
{"columns": ["COMPOUND", "RESULT"],
 "data": [
  ["CC(=O)NCc1nc2cc(NC(=O)c3ccc(C(C)(C)C)cc3)ccc2s1", "2.41 µM"],
  ["O=C(Nc1ccc2sc(CO)nc2c1)C1CCC(C(F)(F)F)CC1 (centres undefined)", "> 10 µM"],
  ["O=C(Nc1ccc2sc(CO)nc2c1)c1ccc(CN2CCOCC2)cc1", "> 10 µM"]
]}

Alright, here's another compound for you.
Exercise: Look up and state reported IC50 for CC(C)(C)c1ccc(NC(=O)c2ccc3sc(CO)nc3c2)cc1
Key: > 10 µM
